Catalogue of ABTS% (ABTS radical scavenging activity) readings, one per entry.
# test_method_notes: ABTS radical cation scavenging
# Format: biochemical
# stated_conditions: compound 0.1 mM; 1 min after mixing
experimental_readout: ABTS% (ABTS radical scavenging activity) (%)

compound	observed_value
C[O-].C[O-].O.O=C([O-])c1cc(-c2ccc(F)cc2F)ccc1[O-].O=C([O-])c1cc(-c2ccc(F)cc2F)ccc1[O-].[Fe+3].[Fe+3].c1cnc2c(c1)ccc1cccnc12.c1cnc2c(c1)ccc1cccnc12 [Complex 1, [Fe2(difl)2(MeO)2(phen)2]∙H2O]	85.38
O=C(O)c1cc(-c2ccc(F)cc2F)ccc1O	76.58
Cc1c(C)c2c(c(C)c1O)CCC(C)(C(=O)O)O2 (stereo not shown) [Trolox, reference compound]	91.8
O=C(O)Cc1ccccc1Nc1c(Cl)cccc1Cl [Nadicl, Sodium diclofenac]	76.35
